molecular target: MAP3K4 (human) (UniProt Q9Y6R4); assay: KINOMEscan competition binding; conditions: compound 10.0 µM
Sequence (Q9Y6R4 whole entry, looked up): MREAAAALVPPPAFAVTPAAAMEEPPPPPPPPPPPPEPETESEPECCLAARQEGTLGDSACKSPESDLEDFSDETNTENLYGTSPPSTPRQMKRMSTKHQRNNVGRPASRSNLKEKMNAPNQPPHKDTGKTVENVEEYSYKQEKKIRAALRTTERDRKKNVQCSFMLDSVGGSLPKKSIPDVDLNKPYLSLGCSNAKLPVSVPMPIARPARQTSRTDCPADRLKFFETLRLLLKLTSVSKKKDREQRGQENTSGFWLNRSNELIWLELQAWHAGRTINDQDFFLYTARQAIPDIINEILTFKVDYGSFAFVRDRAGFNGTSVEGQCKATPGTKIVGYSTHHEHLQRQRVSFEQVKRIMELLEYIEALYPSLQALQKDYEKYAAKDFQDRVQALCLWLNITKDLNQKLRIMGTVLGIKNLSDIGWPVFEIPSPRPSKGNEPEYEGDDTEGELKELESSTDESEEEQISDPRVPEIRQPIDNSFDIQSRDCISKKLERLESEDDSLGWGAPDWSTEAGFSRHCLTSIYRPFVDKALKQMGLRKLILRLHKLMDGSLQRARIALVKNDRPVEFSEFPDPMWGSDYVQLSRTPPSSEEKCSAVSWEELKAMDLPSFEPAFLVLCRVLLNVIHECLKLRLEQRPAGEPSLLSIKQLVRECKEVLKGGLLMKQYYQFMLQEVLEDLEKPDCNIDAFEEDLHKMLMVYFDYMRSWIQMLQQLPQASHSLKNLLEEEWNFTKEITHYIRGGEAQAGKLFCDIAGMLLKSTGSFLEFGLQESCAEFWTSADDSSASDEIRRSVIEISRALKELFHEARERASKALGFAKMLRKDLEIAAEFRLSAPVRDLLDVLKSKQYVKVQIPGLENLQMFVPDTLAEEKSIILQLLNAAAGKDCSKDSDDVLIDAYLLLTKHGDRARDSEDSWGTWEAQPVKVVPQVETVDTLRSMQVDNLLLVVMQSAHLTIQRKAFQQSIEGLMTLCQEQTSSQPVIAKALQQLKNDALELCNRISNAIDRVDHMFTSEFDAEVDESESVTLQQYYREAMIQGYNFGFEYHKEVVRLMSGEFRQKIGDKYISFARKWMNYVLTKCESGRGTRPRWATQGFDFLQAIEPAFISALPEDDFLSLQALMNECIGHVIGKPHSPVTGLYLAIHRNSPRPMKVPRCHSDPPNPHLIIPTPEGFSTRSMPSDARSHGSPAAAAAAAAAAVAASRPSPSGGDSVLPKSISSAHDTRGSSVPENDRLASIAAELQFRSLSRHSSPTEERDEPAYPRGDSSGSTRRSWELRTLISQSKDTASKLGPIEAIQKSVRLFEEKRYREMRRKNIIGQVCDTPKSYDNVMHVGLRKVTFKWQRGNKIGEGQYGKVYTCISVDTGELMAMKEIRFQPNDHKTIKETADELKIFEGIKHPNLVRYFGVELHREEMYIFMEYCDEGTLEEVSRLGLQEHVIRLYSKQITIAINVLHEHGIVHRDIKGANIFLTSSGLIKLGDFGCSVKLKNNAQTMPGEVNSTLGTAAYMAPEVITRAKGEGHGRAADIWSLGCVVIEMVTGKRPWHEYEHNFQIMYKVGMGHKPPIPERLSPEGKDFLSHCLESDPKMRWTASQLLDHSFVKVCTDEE
Quantity: kinase still bound, per cent of control (%)
Numbers only, in %.

Observe how each entry below is paired with its result.
{"Compound": "CCN1CCN(Cc2ccc(Nc3ncc4c(n3)N(C)c3ccccc3C(=O)N4C)cc2C(F)(F)F)CC1", "Numeric Value": 81}
{"Compound": "O=C1Nc2ccc(I)cc2/C1=C/c1cc(Br)c(O)c(Br)c1", "Numeric Value": 95}
{"Compound": "O=C(NOC[C@H](O)CO)c1ccc(F)c(F)c1Nc1ccc(I)cc1F", "Numeric Value": 100}
{"Compound": "C=CC(=O)Nc1cccc(Nc2nc(N[C@H]3CC[C@H](N(C)C)CC3)nc3c2ncn3C(C)C)c1", "Numeric Value": 100}
{"Compound": "O=C(O)c1ccc(Nc2ncc3c(n2)-c2ccc(Cl)cc2C(c2c(F)cccc2F)=NC3)cc1", "Numeric Value": 36}

Please supply kinase still bound, per cent of control for each of the following items, keeping them in order.
1. CCOc1cc2ncc(C#N)c(Nc3ccc(OCc4ccccn4)c(Cl)c3)c2cc1NC(=O)/C=C/CN(C)C
2. Cc1ccc(NC(=O)c2cccc(C(C)(C)C#N)c2)cc1Nc1ccc2ncn(C)c(=O)c2c1
3. CCCS(=O)(=O)Nc1ccc(F)c(C(=O)c2c[nH]c3ncc(-c4ccc(Cl)cc4)cc23)c1F
4. C[C@@H](Oc1cc(-n2cnc3ccc(CN4CCN(C)CC4)cc32)sc1C(N)=O)c1ccccc1C(F)(F)F

### Response
4.8
100
63
100

###

target: PRKD3 (human) (UniProt O94806); assay: KINOMEscan competition binding; settings: compound 10.0 µM
Sequence (O94806 whole entry, looked up): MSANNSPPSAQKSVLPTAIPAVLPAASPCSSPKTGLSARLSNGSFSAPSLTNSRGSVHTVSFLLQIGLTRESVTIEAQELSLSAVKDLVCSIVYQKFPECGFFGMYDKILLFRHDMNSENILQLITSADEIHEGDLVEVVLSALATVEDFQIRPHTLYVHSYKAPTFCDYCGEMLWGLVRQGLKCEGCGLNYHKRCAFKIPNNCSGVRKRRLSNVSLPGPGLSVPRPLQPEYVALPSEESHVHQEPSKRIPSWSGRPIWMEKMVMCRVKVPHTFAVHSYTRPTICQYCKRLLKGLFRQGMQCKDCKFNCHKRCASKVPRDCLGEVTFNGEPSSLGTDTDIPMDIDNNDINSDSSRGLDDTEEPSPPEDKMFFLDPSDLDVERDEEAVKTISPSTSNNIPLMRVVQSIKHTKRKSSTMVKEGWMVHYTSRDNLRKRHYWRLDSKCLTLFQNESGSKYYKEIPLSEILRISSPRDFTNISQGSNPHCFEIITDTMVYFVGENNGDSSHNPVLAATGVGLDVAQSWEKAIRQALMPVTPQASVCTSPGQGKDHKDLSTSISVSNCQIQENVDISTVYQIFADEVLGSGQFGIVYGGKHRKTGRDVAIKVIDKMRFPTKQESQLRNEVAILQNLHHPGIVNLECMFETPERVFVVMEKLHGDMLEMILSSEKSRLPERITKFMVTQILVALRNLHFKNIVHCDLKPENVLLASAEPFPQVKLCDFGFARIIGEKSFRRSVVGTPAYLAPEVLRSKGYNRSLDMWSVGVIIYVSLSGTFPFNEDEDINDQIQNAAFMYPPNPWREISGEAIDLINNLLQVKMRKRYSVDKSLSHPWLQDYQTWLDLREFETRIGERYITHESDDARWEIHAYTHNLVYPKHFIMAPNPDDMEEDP
Quantity: kinase still bound, per cent of control (%)
Numbers only, in %.

Worked examples, 5 compounds total:
{"Compound": "Cn1c(=O)n(-c2ccc(C(C)(C)C#N)cc2)c2c3cc(-c4cnc5ccccc5c4)ccc3ncc21", "Unit Symbol": "%", "Numeric Value": 100}
{"Compound": "COc1cc(N2CCN(C)CC2)ccc1Nc1nc(N)c(C(=O)c2c(Cl)cccc2Cl)s1", "Unit Symbol": "%", "Numeric Value": 70}
{"Compound": "C[C@@H](Oc1cc(-n2cnc3ccc(CN4CCN(C)CC4)cc32)sc1C(N)=O)c1ccccc1C(F)(F)F", "Unit Symbol": "%", "Numeric Value": 12}
{"Compound": "O=C(NOC[C@H](O)CO)c1ccc(F)c(F)c1Nc1ccc(I)cc1F", "Unit Symbol": "%", "Numeric Value": 70}
{"Compound": "CCOc1cc2ncc(C#N)c(Nc3ccc(OCc4ccccn4)c(Cl)c3)c2cc1NC(=O)/C=C/CN(C)C", "Unit Symbol": "%", "Numeric Value": 65}

Could you now look at the following compound, please?
### Prompt Value lookup for kinase still bound, per cent of control; key = CCC(=O)N1CCN(c2ccc(-n3c(=O)ccc4cnc5ccc(-c6cnc7ccccc7c6)cc5c43)cc2C(F)(F)F)CC1
### Response 100

###

target: CDKL5 (human); test: KINOMEscan competition binding; settings: compound 10.0 µM
Quantity: kinase still bound, per cent of control (%)
Numbers only, in %.

{"Compound": "CCC(=O)N1CCN(c2ccc(-n3c(=O)ccc4cnc5ccc(-c6cnc7ccccc7c6)cc5c43)cc2C(F)(F)F)CC1", "Unit Symbol": "%", "kinase still bound, per cent of control": 100}

// each listed molecule needs a value for kinase still bound, per cent of control
1. OCCCNc1cc(-c2ccnc(Nc3cccc(Cl)c3)n2)ccn1
2. CN(C)C/C=C/C(=O)Nc1cccc(Nc2ncc3c(n2)N(C)c2ccccc2C(=O)N3C)c1
3. C=CC(=O)Nc1cccc(Nc2nc(N[C@H]3CC[C@H](N(C)C)CC3)nc3c2ncn3C(C)C)c1
4. CCOc1cc2ncc(C#N)c(Nc3ccc(OCc4ccccn4)c(Cl)c3)c2cc1NC(=O)/C=C/CN(C)C
5. O=C(NC1CC1)c1cccc(-c2ccc3c(NC(=O)C4CC4)n[nH]c3c2)c1

### Response
9.4
100
100
100
42

Consider the following items and state reported kinase still bound, per cent of control for each.
1. COc1cc(N2CCN(C)CC2)ccc1Nc1nc(N)c(C(=O)c2c(Cl)cccc2Cl)s1
2. O=C1Nc2ccc(I)cc2/C1=C/c1cc(Br)c(O)c(Br)c1
3. Cn1c(=O)n(-c2ccc(C(C)(C)C#N)cc2)c2c3cc(-c4cnc5ccccc5c4)ccc3ncc21
4. CCN1CCN(Cc2ccc(Nc3ncc4c(n3)N(C)c3ccccc3C(=O)N4C)cc2C(F)(F)F)CC1
5. COc1cc(C(=O)NC2CCN(C)CC2)ccc1Nc1ncc2c(n1)N(C1CCCC1)CCC(=O)N2C(C)C

### Response
1: 100; 2: 92; 3: 100; 4: 100; 5: 100
